# protocol.details: Ratio of plasma concentration in rat measured after 3 hrs to IC50 of P2X3 (unknown origin)
# Format: ADME
# applied.conditions: in vivo
Measured Ratio, listed per entry for reference.
Lab note: write the figure by itself, no unit.

chemical_string=Cc1ccc(Cn2c(=O)n(CCCC(=O)O)c(=O)[nH]/c2=N\c2ccc(OC(C)C)c(Cl)c2)cc1 recorded_number=294.8
chemical_string=Cc1cc(/N=c2\[nH]c(=O)n(C[C@H](C)C(=O)O)c(=O)n2Cc2ccc(Cl)cc2)ccc1OC(C)C recorded_number=57.8
chemical_string=CC.C[C@@H](Cn1c(=O)[nH]/c(=N\c2ccc(Oc3cc(F)ccn3)cc2)n(Cc2ccc(Cl)cc2)c1=O)C(=O)O recorded_number=48.9

Per the record, `CC(C)Oc1ccc(/N=c2\[nH]c(=O)n(C[C@H](C)C(=O)O)c(=O)n2Cc2ccc(Cl)cc2)cc1` has Ratio of 42.8

Item: `CC(C)COc1ccc(/N=c2\[nH]c(=O)n(C[C@H](C)C(=O)O)c(=O)n2Cc2ccc(Cl)cc2)cc1` | Ratio: 11.5

The compound listed as `CC(C)Oc1ccc(Nc2nc(=O)n(CCCO)c(=O)n2Cc2ccc(Cl)cc2)cc1Cl` shows Ratio equal to 103.5

Entry `Cc1ccc(Cn2c(=O)n(CC(C)(C)C(=O)O)c(=O)[nH]/c2=N\c2ccc(OC(C)C)c(Cl)c2)cc1` ; Ratio = 14.2

Value of measured Ratio for the entry `CC(C)Oc1ccc(/N=c2\[nH]c(=O)n(C[C@H](C)C(=O)O)c(=O)n2Cc2ccc(Cl)cc2)cc1Cl` : 171.8
